Reference source for all entries: the supplement of paper PMC10338343

Provide the recorded pre-steady-state target cleavage rate for the entries that follow.
Tested on: MILI (PIWIL2) piRISC loaded with piRNA #2 (26 nt);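 further: 1 nM active piRISC with 0.1 nM target library at 33 °C single turnover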
PROCEDURE TEXT: pre-steady-state target cleavage rate (min^-1); higher = faster piRNA-guided slicing of the target
CONDITION DETAILS: guide: piRNA #2 5'p-UUAGGUAACCCAGUAGAUCCAGAGGA; auxiliary factor: 500 nM mouse GTSF1
The full ranking holds about 3,000 sequences; the median of “pre-steady-state target cleavage rate” is about 0.0079, and the highest 2% start at about 0.2. Shown is part of a subset that was picked to be rich in the highest values.

Q: Please give the documented pre-steady-state target cleavage rate of CUUAAGGAGACCUAGUACUUGGUUACCUAA
Ans: < 0.0001

Q: Could you please provide reported pre-steady-state target cleavage rate for CUUAAGGAGACCUUCUACUGGGGUACCUAA ? Thanks!
Ans: < 0.0001

Q: Give pre-steady-state target cleavage rate for the following sequence: CUUAAGGAGACCUAGUACGGGUUACCUAA
Ans: < 0.0001

----------
Test system: MILI (PIWIL2) piRISC loaded with piRNA #2 (26 nt);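 further: 1 nM active piRISC with 0.1 nM target library at 33 °C single turnover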
PROCEDURE TEXT: pre-steady-state target cleavage rate (min^-1); higher = faster piRNA-guided slicing of the target
CONDITION DETAILS: guide: piRNA #2 5'p-UUAGGUAACCCAGUAGAUCCAGAGGA; auxiliary factor: 500 nM mouse GTSF1
The full ranking holds about 3,000 sequences; the median of “pre-steady-state target cleavage rate” is about 0.0079, and the highest 2% start at about 0.2. Shown is part of a subset that was picked to be rich in the highest values.
VALUE KIND: pre-steady-state target cleavage rate
// no unit, no text: just the number

Q: Output measured pre-steady-state target cleavage rate for this item: CUUAUCCUCUGGUUCUACUGGGUUACCUAA
Ans: 0.469

Q: Please report the measured pre-steady-state target cleavage rate for CUUAUCCUCUGGACUCUACUGGGUUACCUAA
Ans: 0.0887

Q: Write down pre-steady-state target cleavage rate measured for item CUUAUCCUCUCCUUCUACUGGGUUACCUAA
Ans: 0.106

Q: Return the recorded pre-steady-state target cleavage rate value; entry: CUUAACACUCUGGAUCUACUGGGUUACCUAA
Ans: 0.0824

Q: For the sequence CUUAUCCCUCUGGAUCUACUGGGUUACCUAA , give its measured pre-steady-state target cleavage rate value.
Ans: 0.0911

Q: Kindly indicate its recorded pre-steady-state target cleavage rate. Item: CUUAUCCUCUGGAUCUACUGGGUUACGCUAA
Ans: 0.174

Q: Provide one value: measured pre-steady-state target cleavage rate of CUUAUCCUCUGGAUCUACUGGGUUCCCUAA
Ans: 0.321

Q: Annotate the sequence CUUAUCCUCUGGAUCUUCUGGGUUUCCUAA with its measured pre-steady-state target cleavage rate.
Ans: 0.258

Q: Return the recorded pre-steady-state target cleavage rate value; entry: CUUAUCCUCUGGAUCUACUGGGUAUGCUAA
Ans: 0.092

Q: Item CUUAAGCUCUGGAUCUACAGGGUUACGUAA : provide pre-steady-state target cleavage rate
Ans: 0.0394

Q: Given the sequence CUUAAGCACUGGAUCUACUGGGUUACCUAA , write its reported pre-steady-state target cleavage rate.
Ans: 0.113

Q: Entry CUUAUCCUCUGGUUCUACUGGGUUACCUUA needs its pre-steady-state target cleavage rate filled in; supply it.
Ans: 1.12

Q: Name the recorded pre-steady-state target cleavage rate of the item CUUAUCCUCUGGAUCUAGUGGGUUUCCUAA in your answer.
Ans: 0.055

Q: Give pre-steady-state target cleavage rate for CUUAUCCUCUGUAUCUACUGGGUUACCUAA
Ans: 0.0865

Q: Give the reported pre-steady-state target cleavage rate for this sequence. CUUAUCCUCUGGAUCUACUGGGUGACCUAA
Ans: 0.0696

Q: # return recorded pre-steady-state target cleavage rate for entry CUUAUCCUCUGGAUCUACUGGGUUUGCUAA
Ans: 0.216

Q: Indicate its recorded pre-steady-state target cleavage rate; the sequence in question is CUUAUCCUCUGGAGUCUACUGGGUUACCUAA
Ans: 0.175

----------
System: MILI (PIWIL2) piRISC loaded with piRNA #2 (26 nt);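 further: 1 nM active piRISC with 0.1 nM target library at 33 °C single turnover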
PROCEDURE TEXT: pre-steady-state target cleavage rate (min^-1); MIWI and MILI are mouse PIWI proteins and EfPiwi is from a freshwater sponge; tags in brackets are library labels; higher = faster piRNA-guided slicing of the target;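 further: 1 nM active piRISC with 0.1 nM target library at 33 °C single turnover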
CONDITION DETAILS: guide: piRNA #2 5'p-UUAGGUAACCCAGUAGAUCCAGAGGA; auxiliary factor: 500 nM mouse GTSF1
Over roughly 3,000 sequences, “pre-steady-state target cleavage rate” has its median near 0.0079; the highest 2% begin near 0.2. Only a selection was taken, and the highest values are over-represented in it overall.
pre-steady-state target cleavage rate vs 0.1: at or above is 1 (yes), below is 0 (no).

Q: Please check the record CUUAAGGUCUGCAUCUACUGGGUUACCAAA and state if its pre-steady-state target cleavage rate is at or above 0.1.
Ans: 0 (no)

Q: Determine whether this sequence has pre-steady-state target cleavage rate no lower than 0.1: CUUAUCCUCUGGAUCUACUGGGUUACCUAA [g2:g26:cont:t1A]
Ans: 1 (yes)

Q: Identify whether the reported pre-steady-state target cleavage rate of the following sequence is 0.1 or greater: CUUAUCCUCUGGAUCUACUGGGUUACCAAA
Ans: 1 (yes)

Q: Evaluate CUUAUCCUCUGGAUCUACUGGGUUACGUAA : pre-steady-state target cleavage rate at minimum 0.1?
Ans: 0 (no)

Q: Could you verify whether the entry CUUAACCUCUGCAUCUACUGGGUUACCAAA shows pre-steady-state target cleavage rate of no less than 0.1?
Ans: 1 (yes)

Q: Is the recorded value of pre-steady-state target cleavage rate equal to or greater than 0.1 for this sequence? CUUAUCCUCUGGAUGUAGUGGGUUACCUAA
Ans: 0 (no)

Q: Please tell me: is the sequence CUUAUCCUCUGCAUCUACUGCGUUACCUAA at or over 0.1 in terms of pre-steady-state target cleavage rate?
Ans: 0 (no)

Q: # check: pre-steady-state target cleavage rate of CUUAUCCUCUGGGAUCUACUGGGUUACCUAA is greater than or equal to 0.1
Ans: 1 (yes)

Q: Is it the case that CUUAUCCUCUGCAUCUACUGGGUUUCCUAA has pre-steady-state target cleavage rate reaching or exceeding 0.1?
Ans: 1 (yes)

Q: Does CUUAUCCUCUGAUCUACUGGGUUACCUAA have a reported pre-steady-state target cleavage rate of at least 0.1?
Ans: 1 (yes)

Q: Please indicate if the recorded pre-steady-state target cleavage rate for CUUAUCCUCUGGUUCUACUGGGUUAGCUAA meets or exceeds 0.1.
Ans: 1 (yes)

Q: Check the entry CUUAAGCUCUGGAUCUAAUGGGUUACCUAA : does pre-steady-state target cleavage rate equal or exceed 0.1?
Ans: 0 (no)

Q: Does pre-steady-state target cleavage rate meet or surpass 0.1 for CUUAAGCUGACGAUCUACUGGGUUACCUAA ?
Ans: 0 (no)

Q: State whether the measured pre-steady-state target cleavage rate reaches 0.1, counting equality as reaching it, for CUUAUCCUCUAGAUCUACUGGGUUACCUAA
Ans: 1 (yes)

Q: Check if pre-steady-state target cleavage rate >= 0.1 (inclusive). Item: CUUAUCCUCUGCAUCUACUGGGUUACGUAA
Ans: 1 (yes)

Q: Record CUUAUCCUCUGGAUCUACUGGGUUCCUAA ; criterion: pre-steady-state target cleavage rate no lower than 0.1. Met?
Ans: 1 (yes)

Q: Does pre-steady-state target cleavage rate meet or surpass 0.1 for CUUAUCCUCUGAGAUCUACUGGGUUACCUAA ?
Ans: 1 (yes)

Q: Threshold query (pre-steady-state target cleavage rate >= 0.1) on CUUAAGCUCUGGAUGUAGUGGGUUACCUAA
Ans: 0 (no)

Q: Does the sequence CUUAUCCUCUGGAUCUACUGGGUAUCCUAA have recorded pre-steady-state target cleavage rate that is 0.1 or more?
Ans: 0 (no)

Q: Hello, I need to know if CUUAUCCUCUGGAUCUACUGGGUUUCCUUA has measured pre-steady-state target cleavage rate not below 0.1. Thanks!
Ans: 1 (yes)

Q: Check if pre-steady-state target cleavage rate >= 0.1 (inclusive). Item: CUUAUCCUCUAGGAUCUACUGGGUUACCUAA
Ans: 0 (no)

Q: Hello, I need to know if CUUAAGCUCUGGAUCUUGUGGGUUACCUAA has measured pre-steady-state target cleavage rate not below 0.1. Thanks!
Ans: 0 (no)

Q: Could you please find out whether CUUAUCCUCUGGAUCUACUGGAUUACCUAA has pre-steady-state target cleavage rate that meets 0.1 or exceeds it?
Ans: 0 (no)

Q: # check: pre-steady-state target cleavage rate of CUUAUCCUCUGCAUCUACUGGGUUACCUUA is greater than or equal to 0.1
Ans: 1 (yes)

Q: Would you say CUUAUCCUCUGCAUCUACUGGGUUACCUAA shows pre-steady-state target cleavage rate at minimum 0.1?
Ans: 1 (yes)

Q: State whether the measured pre-steady-state target cleavage rate reaches 0.1, counting equality as reaching it, for CUUAUCCUCUGGUUCUACUGGGUUUCCUAA
Ans: 1 (yes)

Q: Hello, I need to know if CUUAAGGACAGGAUCUACAGGGUUACCUAA has measured pre-steady-state target cleavage rate not below 0.1. Thanks!
Ans: 0 (no)

Q: Form field: pre-steady-state target cleavage rate at least 0.1? Entry: CUUAUCCUCUGGAUCUACUGGGUUUCGUAA
Ans: 1 (yes)

Q: Kindly determine if pre-steady-state target cleavage rate recorded for CUUAAGGUGUGGAUCAACUGGGUUACCUAA is above or exactly 0.1.
Ans: 0 (no)

Q: Item CUUAAGCUCUGGAUCUACUGGGUUUCGUAA with pre-steady-state target cleavage rate of 0.1 or above?
Ans: 0 (no)

Q: Determine whether measured pre-steady-state target cleavage rate meets or exceeds 0.1 for CUUAAGCUCUGGAUCUACUGGGUUACGUAA
Ans: 0 (no)

Q: Item CUUAAGCUCUCGGAUCUACUGGGUUACCUAA with pre-steady-state target cleavage rate of 0.1 or above?
Ans: 0 (no)

Q: API: above_or_equal(metric=pre-steady-state target cleavage rate, cutoff=0.1) for item CUUAUCCUCUGGUUCUACUGGGAUACCUAA
Ans: 1 (yes)

Q: Answer whether pre-steady-state target cleavage rate of CUUAUCCUCACCAUCUACUGGGUUACCUAA is greater than or equal to 0.1.
Ans: 1 (yes)

Q: Evaluate CUUAUCCUCUGGAUGUACUGGGUUACCUAA : pre-steady-state target cleavage rate at minimum 0.1?
Ans: 1 (yes)

Q: Does pre-steady-state target cleavage rate meet or surpass 0.1 for CUUAUCCUCUGCAUCUACUGGGUUAGCUAA ?
Ans: 1 (yes)

Q: Entry CUUAACCUCUGCAUCUACUGGGUUACGUAA : is its pre-steady-state target cleavage rate no less than 0.1?
Ans: 1 (yes)

Q: Check this sequence for pre-steady-state target cleavage rate at or above 0.1: CUUAACCUCUGGUACUACUGGGUUACCUAA
Ans: 1 (yes)

Q: Check the entry CUUAUCCUCUGGAUCUACUGGGUUAGCUAA : does pre-steady-state target cleavage rate equal or exceed 0.1?
Ans: 1 (yes)

Q: Could you tell me if the measured pre-steady-state target cleavage rate of CUUAUCCUCUGGAUCUACAGGGUUACCUAA reaches 0.1 or more?
Ans: 1 (yes)

Q: Quick check: does CUUAUCCUCUGGAUGUACUGCGUUACCUAA have pre-steady-state target cleavage rate greater than or equal to 0.1?
Ans: 0 (no)

Q: Would you say CUUAUCCUCUGGAUCUACUGGGUUACCUUA shows pre-steady-state target cleavage rate at minimum 0.1?
Ans: 1 (yes)
